test: yeast display, Sf9 membrane polyspecificity reagent, FACS + sequencing; frameworks hold sequencing errors

>  <Residue codes>
QVQLVESGGGLVQAGASLRLSCAPSGSTFYPNSMAWYRQSPGKERHLVDAITSGGSTYYADSVKGRFTISRDNSKNTVYLQMNSLKPEDTAVYYCAAQRRYHQDTTIAPGNYYYWGQGTQVTVSS

>  <polyreactivity (PSR sort gate)>
low polyreactivity

$$$$
>  <Residue codes>
QVQLVQSGGGLVQAGGSLRLSCAASGSIFGDYAMGWYRQAPGKEREFVARINVSGTSTFYADSVKGRFTISRDNAKNTVYLQMNSLKPEDTAVYYCAARGLPSNYYYYVHGYIMDYWGQGTQVTVSS

>  <polyreactivity (PSR sort gate)>
low polyreactivity

$$$$
>  <Residue codes>
QVQLVESGGGLVQAGGSLRLSCAASGSTFYHYAMGWYRQAPGKERELVAAISTSGGRTYYADSVKGRFTISRDNAKNTVYLQMNSLKPEDTAVYYCAARSYRYYYGFDYWGQGTQVTVSS

>  <polyreactivity (PSR sort gate)>
low polyreactivity

$$$$
>  <Residue codes>
QVQLVESRGGLVQAGGSLRLSCAASGSIFGTNAMGRNRQAPGKERELVAAINSGGSTNYADSVKGRFTISRDNAKNTVYLQMNSLKPEDTAVYYCAADEGLWSPSRNAYDYDYWGQGTQVTVSS

>  <polyreactivity (PSR sort gate)>
low polyreactivity

$$$$
>  <Residue codes>
QVQLQESGGGLVQAGGSLRLSCAASGTISQEDWMGWYRQAPGKEREFVAAIGLGSNTNYADSLKGRFTMSRDNAKNTVYLQMNSLKPEDTAVYYCAVSVWQYSDHVYRGQGTQVTVSS

>  <polyreactivity (PSR sort gate)>
low polyreactivity

$$$$
